- assay: Pharmacokinetic study after single i.p. administration, serum and brain concentrations by LC-MS/MS, non-compartmental analysis
- Format: in vivo, Albino Swiss mice
- assayContext: brain; mice, 5 mg/kg i.p.
AUC0–8h reference

O=C1c2ccccc2C(=O)N1CC(O)CN1CCN(C(c2ccccc2)c2ccccc2)CC1 (stereo not shown) : 164.50 µg∙h/L(kg)
O=C1c2ccccc2C(=O)N1CC(O)CN1CCN(c2ccccc2)CC1 (stereo not shown) : 368.04 µg∙h/L(kg)
O=C1c2ccccc2C(=O)N1CC(O)CN1CCN(c2cccc(C(F)(F)F)c2)CC1 (stereo not shown) : 520.05 µg∙h/L(kg)

We now examine a further compound.
Fill in the blank: the reported AUC0–8h of COc1ccccc1N1CCN(CC(O)CN2C(=O)c3ccccc3C2=O)CC1 (stereo not shown) is ____.
230.83 µg∙h/L(kg)
